# half-life per entry
Experiment: Half-life in male ICR mouse at 10 mg/kg, po measured after 24 hrs by LC-MS/MS analysis
Format: ADME, organism-based
Conditions: in vivo
# number only, unit h dropped from output

Sample answers from the record:
structureString | measuredResult
COc1cc(C(F)(F)F)ccc1C[Se]c1cccc(N2C=NN(Cc3nc4c(F)cc(C(=O)O)cc4n3C[C@@H]3CCO3)CC2)n1 | 6.06
COc1cc(C#N)ccc1C[Se]c1cccc(N2C=NN(Cc3nc4c(F)cc(C(=O)O)cc4n3C[C@@H]3CCO3)CC2)n1 | 7.02

Continue with the next molecule.
Item under review: COc1cc(C#N)ccc1C[Se]c1cccc(C2CCN(Cc3nc4ccc(C(=O)O)cc4n3C[C@@H]3CCO3)CC2)n1 . Reported half-life?
5.13

###

Assay: Clearance in male ICR mouse at 2 mg/kg, iv measured after 24 hrs by LC-MS/MS analysis
Type: ADME, organism-based
Conditions: in vivo
experimentalReadout: clearance (mL/min/kg)
# number only, unit mL/min/kg dropped from output

Sample answers from the record:
structureString | clearance [mL/min/kg]
COc1cc(C(F)(F)F)ccc1C[Se]c1cccc(N2C=NN(Cc3nc4c(F)cc(C(=O)O)cc4n3C[C@@H]3CCO3)CC2)n1 | 9.05
COc1cc(C#N)ccc1C[Se]c1cccc(N2C=NN(Cc3nc4c(F)cc(C(=O)O)cc4n3C[C@@H]3CCO3)CC2)n1 | 10.3

Continue with the next compound.
Item under review: COc1cc(C#N)ccc1C[Se]c1cccc(C2CCN(Cc3nc4ccc(C(=O)O)cc4n3C[C@@H]3CCO3)CC2)n1 . Reported clearance?
6.12

###

Target: UniProt P43220
Sequence (P43220 whole entry): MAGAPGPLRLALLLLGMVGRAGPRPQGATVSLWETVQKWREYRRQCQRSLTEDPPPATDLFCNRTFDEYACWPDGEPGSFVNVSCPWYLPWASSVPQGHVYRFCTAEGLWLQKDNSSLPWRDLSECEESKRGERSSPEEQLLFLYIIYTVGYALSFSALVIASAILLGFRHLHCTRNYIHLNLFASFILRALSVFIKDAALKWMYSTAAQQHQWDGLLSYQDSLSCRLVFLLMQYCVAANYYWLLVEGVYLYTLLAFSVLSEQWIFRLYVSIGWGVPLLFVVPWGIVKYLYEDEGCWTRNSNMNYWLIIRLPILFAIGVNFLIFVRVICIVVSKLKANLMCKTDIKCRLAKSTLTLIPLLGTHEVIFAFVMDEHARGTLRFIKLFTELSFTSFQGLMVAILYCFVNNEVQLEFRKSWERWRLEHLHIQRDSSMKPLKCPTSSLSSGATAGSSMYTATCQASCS
Assay: Agonist activity at human GLP-1R expressed in HEK293 cells assessed as cAMP accumulation incubated for 30 mins by LANCE ultra cAMP assay
Type: functional, cell-based
experimentalReadout: EC50

structureString | measuredResult
CC(C)[C@H](NCc1nc2ccc(C(=O)O)cc2n1C[C@@H]1CCO1)C(=O)Nc1cccc([Se]Cc2ccc(C#N)cc2F)n1 | > 200 µM

Continue with the next compound.
Item under review: CC(C)[C@@H](NCc1nc2ccc(C(=O)O)cc2n1C[C@@H]1CCO1)C(=O)Nc1cccc([Se]Cc2ccc(C#N)cc2F)n1 . Reported EC50?
> 200 µM

###

# half-life per entry
Test: Half-life in male ICR mouse at 2 mg/kg, iv measured after 24 hrs by LC-MS/MS analysis
Type: ADME, organism-based
Conditions: in vivo
# number only, unit h dropped from output

structureString | measuredResult
COc1cc(C#N)ccc1C[Se]c1cccc(C2CCN(Cc3nc4ccc(C(=O)O)cc4n3C[C@@H]3CCO3)CC2)n1 | 2.22

Item under review: COc1cc(C#N)ccc1C[Se]c1cccc(N2C=NN(Cc3nc4c(F)cc(C(=O)O)cc4n3C[C@@H]3CCO3)CC2)n1 . Reported half-life?
4.52

Item under review: COc1cc(C(F)(F)F)ccc1C[Se]c1cccc(N2C=NN(Cc3nc4c(F)cc(C(=O)O)cc4n3C[C@@H]3CCO3)CC2)n1 . Reported half-life?
5.71

###

# Cmax per entry
Experiment: Cmax in male ICR mouse at 10 mg/kg, po measured after 24 hrs by LC-MS/MS analysis
Type: ADME, organism-based
Conditions: in vivo
# number only, unit ng/mL dropped from output

Sample answers from the record:
structureString | scaleUnit | Cmax
COc1cc(C#N)ccc1C[Se]c1cccc(C2CCN(Cc3nc4ccc(C(=O)O)cc4n3C[C@@H]3CCO3)CC2)n1 | ng/mL | 4960
COc1cc(C(F)(F)F)ccc1C[Se]c1cccc(N2C=NN(Cc3nc4c(F)cc(C(=O)O)cc4n3C[C@@H]3CCO3)CC2)n1 | ng/mL | 283

Continue with the next compound.
Item under review: COc1cc(C#N)ccc1C[Se]c1cccc(N2C=NN(Cc3nc4c(F)cc(C(=O)O)cc4n3C[C@@H]3CCO3)CC2)n1 . Reported Cmax?
324
